# credit: patent US20060286561A1

- Target system: AmpliTaq DNA Polymerase, FS (Thermus aquaticus, UniProt P19821, F667Y/G46D)
- Construct: purchased PE Applied Biosystems p/n 402117
- Sequence (P19821 whole entry G46D/F667Y): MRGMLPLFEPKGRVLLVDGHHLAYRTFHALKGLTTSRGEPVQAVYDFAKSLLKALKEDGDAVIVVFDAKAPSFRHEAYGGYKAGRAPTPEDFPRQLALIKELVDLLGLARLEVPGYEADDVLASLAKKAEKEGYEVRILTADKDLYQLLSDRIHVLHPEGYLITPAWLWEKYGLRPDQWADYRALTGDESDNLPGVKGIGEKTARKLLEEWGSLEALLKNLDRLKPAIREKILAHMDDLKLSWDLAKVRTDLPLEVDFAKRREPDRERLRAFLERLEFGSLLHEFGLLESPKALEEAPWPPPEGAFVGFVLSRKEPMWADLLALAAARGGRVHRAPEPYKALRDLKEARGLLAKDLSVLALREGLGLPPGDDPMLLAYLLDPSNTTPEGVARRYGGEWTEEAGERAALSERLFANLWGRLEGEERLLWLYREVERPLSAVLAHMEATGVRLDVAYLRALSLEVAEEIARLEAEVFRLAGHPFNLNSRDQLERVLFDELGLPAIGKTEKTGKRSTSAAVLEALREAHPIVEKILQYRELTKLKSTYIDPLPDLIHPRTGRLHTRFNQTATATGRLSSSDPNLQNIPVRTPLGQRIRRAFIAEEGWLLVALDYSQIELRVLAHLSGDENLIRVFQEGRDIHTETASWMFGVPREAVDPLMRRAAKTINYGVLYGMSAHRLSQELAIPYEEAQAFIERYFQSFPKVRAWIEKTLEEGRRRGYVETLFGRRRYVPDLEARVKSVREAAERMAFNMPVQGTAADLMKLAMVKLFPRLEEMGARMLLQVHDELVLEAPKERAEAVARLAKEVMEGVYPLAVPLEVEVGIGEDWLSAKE
- Measurement protocol: Terminator Titration Assay (dye-terminator cycle sequencing reaction)
- Type: biochemical
- Condition context: C-terminator linked to 6-FAM dye; to form a full sequencing ladder; unlabeled dideoxy terminator = 1
- From the text: The Terminator Titration Assay was used to determine the minimum amount of dye terminator required to create a full sequencing ladder, i.e., a sequencing ladder including all fragments terminating in a particular base having a length of between about 20 to about 600 nucleotides. The key components of the assay were (i) a primer labeled with a first dye, and (i) a terminator labeled with a second dye spectrally resolvable from the first dye. […]
Endpoint label: Relative Molar Excess Terminator Required

>>> result("Nc1nc(=O)n(C2CCC(COP(=O)(O)OP(=O)(O)OP(=O)(O)O)O2)cc1C#CCNC(=O)c1ccc2c(c1)C(=O)OC21c2ccc(O)cc2Oc2cc(O)ccc21 (stereo not shown) [(6-FAM)-propargylamido-C, reference compound]")
55
>>> result("Nc1nc(=O)n(C2CCC(COP(=O)(O)OP(=O)(O)OP(=O)(O)O)O2)cc1C#CCOCCOCCNC(=O)c1ccc2c(c1)C(=O)OC21c2ccc(O)cc2Oc2cc(O)ccc21 (stereo not shown)")
45
>>> result("Nc1ccn([C@H]2CC[C@@H](COP(=O)(O)OP(=O)(O)OP(=O)(O)O)O2)c(=O)n1 [Unlabeled terminator, 2′,3′-ddCTP, reference compound]")
1
>>> result("Nc1nc(=O)n(C2CCC(COP(=O)(O)OP(=O)(O)OP(=O)(O)O)O2)cc1C#CCOCCNC(=O)c1ccc2c(c1)C(=O)OC21c2ccc(O)cc2Oc2cc(O)ccc21 (stereo not shown)")
9
